- study_system: T1, ST2 on KU812 cells (UniProt Q01638 19-556, limits assumed)
- T1 sequence (looked up): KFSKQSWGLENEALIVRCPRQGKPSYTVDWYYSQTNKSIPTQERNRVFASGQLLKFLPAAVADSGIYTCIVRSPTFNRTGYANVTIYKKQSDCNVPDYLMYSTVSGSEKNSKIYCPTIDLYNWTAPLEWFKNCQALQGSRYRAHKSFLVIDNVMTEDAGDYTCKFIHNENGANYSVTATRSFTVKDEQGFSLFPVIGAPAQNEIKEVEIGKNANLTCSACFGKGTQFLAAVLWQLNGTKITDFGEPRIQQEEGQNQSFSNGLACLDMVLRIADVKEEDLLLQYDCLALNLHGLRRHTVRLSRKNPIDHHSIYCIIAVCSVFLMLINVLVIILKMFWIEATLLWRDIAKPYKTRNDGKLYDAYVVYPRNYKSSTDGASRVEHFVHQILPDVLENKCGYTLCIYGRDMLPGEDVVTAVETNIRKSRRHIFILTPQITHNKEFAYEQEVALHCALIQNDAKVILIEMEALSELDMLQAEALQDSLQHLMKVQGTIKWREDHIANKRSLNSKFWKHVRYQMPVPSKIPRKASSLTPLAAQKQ
- test_method_notes: cell-based or functional assay
measure: IC50, activation of KU812-NF-κB reporter gene by IL33 (µg/mL)
Give just the number in µg/mL; leave the unit off.

Example results:
{"binder": "5888-379H1+L2 (antibody, V domains shown, murine antibody) VH: QIQLAQSGPELKKPGETVKISCKASGYTFINYGMNWVKQAPGKDLKWMGWINTYIGEPTYGDNFKGRFAFSLETSASTVYLQINNLKNEDTATYFCAREGDGFAYWGQGTLVTVSA VL: DIVMTQSPPSLSVSVGEKVTMSCKSSQSLLYSGNQNNYLAWYQQKPGQPPKLLIYGASTRESGVPDRFTGSGSGTDFTLTISSVQAEDLAVYYCQNDHSYPYTFGGGTKLEIK", "output_unit": "µg/mL", "recorded_result": 0.391}
{"binder": "5886-156H+L (antibody, V domains shown, murine antibody) VH: DVQLQQSGPGLVKPSQSLSLTCTVTGYSITSDYAWNWIRQFPGNKLEWMGYIDYSGSTTYNPSLKSRFSITRDTSKNQFFLQLNSVTTEDTATYYCASTVIDSMDYWGQGTSVTVSS VL: DIVLTQSPASLAVSLGQRATISCRASKSVSTSGHSYMHWYQQKPGQPPKLLIYLASNLESGVPARFSGSGSGTDFTLNINPMEEEDAATYYCQHSREFPFTFGSGTKLEIK", "output_unit": "µg/mL", "recorded_result": 0.00804}
{"binder": "5887-537H3+L1 (antibody, V domains shown, murine antibody; also called 5887-537H3H+L1) VH: QVTLKESGPGILQPSQTLSLTCSFSGFSLSTSGMGVGWIRQPSGKGLEWLAHIWWDDVKQYNPALKSRLTISKDTSSSQVFLKSASVDTADTATYYCARIGGDYDYFDFWGQGTTLTVSS VL: DIVLTQSPASLAVSLGQRATISCRASESVEYSGTSLMQWYQQKPGQPPKLLIYVASNVESGVPARFSGSGSGTDFSLNIHPVEEDDIAMYFCQQSRKVPWTFGGGTKLEIK", "output_unit": "µg/mL", "recorded_result": 0.101}

The recorded IC50, activation of KU812-NF-κB reporter gene by IL33 for entry 5888-357H+L (antibody, V domains shown, murine antibody) VH: QVQLQQSVTELVRPGASVTLSCKASGYRFTDSEMHWVKQTPVHGLEWIGTIDPETGGTVYNQKFKGKAKLTADRSSSTVSMELRSLTSEDSAVYYCTRAFYNDFDDGFAYWGQGTLVTVSA VL: QIVMTQSPAIMSASPGEKVTLTCSASTSVSYMHWYQQKSGTSPKRWIYDTSKLASGVPARFSGSGSGTSYSLTISSMEAEDAATYYCQQWSSNPLTFGAGTKLELK equals 0.0552

The recorded IC50, activation of KU812-NF-κB reporter gene by IL33 for entry 5887-41H+L (antibody, V domains shown, murine antibody) VH: DVQLQQSGPGLVKPSQSLSLTCTVTGYSITSDYAWDWIRQFPGNKLEWMGYIRYSGDTYYNPSLKSRISITRDTSKNQFFLQLNSVTTEDTATYYCATTMMDTMDYWGQGTSVTVSS VL: DIVLTQSPASLTVSLGQRATISCRASKSVSTSGNSYMHWYQQKPGQPPKLLIYLASNLESGVPARFSGSGSGTDFTLNIHPVEEEDAATYYCQHSREFPLTFGAGTKLELK equals 0.00287

The recorded IC50, activation of KU812-NF-κB reporter gene by IL33 for entry 5888-116H1+L1 (antibody, V domains shown, murine antibody) VH: QVQLQQSGAELVRPGASVTLSCKASGYTFTDSEMYWVRLTPVHGLEWIGAIDPETGDTAFNQKFKGKATLTADKSSSTAYMELRSLTSEDSVVYYCTRAFDNDNDDGFAYWGQGTLVTVSA VL: QIVMTQSPAIMSASPGEKVTMTCSASSSVNYMHWYQQKSGTSPKRWIYDTSKLASGVPARFSGSGSGTSYSLTISSMEAEDAATYYCQQWSSNPLTFGAGTKLELK equals 0.206

The recorded IC50, activation of KU812-NF-κB reporter gene by IL33 for entry 5888-153H1+L2 (antibody, V domains shown, murine antibody) VH: QVQLQQSGAELVRPGASVTLSCKASGYTFTDYELHWVKQTPVHGLEWIGTIDPETGDTVYNQKFKAKAILTADKSSSTAYMEFRSLTSEDSAVCYCTRAFYNDYDDGFAYWGQGTLVTVSA VL: QIVMTQTPAIMSASPGEKVTMTCSVSSSVSYMHWYQQKSGTSPKRWIYDTSKLASGVPARFSGSGSGTSYSLTINNMEAEDAATYYCQQWNSSPLTFGAGTKLELK equals 0.0495

Cited source for all entries: patent US12624112
